Values from ChEMBL document CHEMBL1833790

System: T98G
PROTOCOL_DESCRIPTION: Growth inhibition in apoptosis-resistant human T98G after 3 days by MTT assay
Assay type: functional
PARTICULARS: 72 h
ATTRIBUTE_MEASURED: log10 GI50 (log10 of the value in µM)

INSERT INTO assay_data (compound, observed_measurement) VALUES
  ('CC1(C)[C@@H](O)CC[C@]2(C)[C@H]3C(=O)C=C4[C@@H]5C[C@@](C)(C(=O)NCCNC(=O)Nc6cc(C(F)(F)F)cc(C(F)(F)F)c6)CC[C@]5(C)CC[C@@]4(C)[C@]3(C)CC[C@@H]12', 1.08),
  ('COc1cc(/C=C/C(C)=O)ccc1OC(=O)[C@@]1(C)CC[C@]2(C)CC[C@]3(C)C(=CC(=O)[C@@H]4[C@@]5(C)CC[C@H](O)C(C)(C)[C@@H]5CC[C@]43C)[C@@H]2C1', 0.48),
  ('CC1(C)[C@@H](O)CC[C@]2(C)[C@H]3C(=O)C=C4[C@@H]5C[C@@](C)(C(=O)O)CC[C@]5(C)CC[C@@]4(C)[C@]3(C)CC[C@@H]12 [ENOXOLONE]', 1.93),
  ('COc1cccc(C(=O)NCCNC(=O)[C@@]2(C)CC[C@]3(C)CC[C@]4(C)C(=CC(=O)[C@@H]5[C@@]6(C)CC[C@H](O)C(C)(C)[C@@H]6CC[C@]54C)[C@@H]3C2)c1', 1.89),
  ('CC1(C)[C@@H](O)CC[C@]2(C)[C@H]3C(=O)C=C4[C@@H]5C[C@@](C)(C(=O)NCCc6ccc(F)cc6)CC[C@]5(C)CC[C@@]4(C)[C@]3(C)CC[C@@H]12', 1.66);

---

PROTOCOL_DESCRIPTION: Chemical stability of the compound in MEM cell culture medium after 7 days by HPLC analysis
Assay type: physicochemical
PARTICULARS: read-out: Stability
ATTRIBUTE_MEASURED: remaining at 168 h (%)

INSERT INTO assay_data (smiles_string, readout_unit, observed_measurement) VALUES
  ('CC(C)(C)OC(=O)NCCNC(=O)[C@@]1(C)CC[C@]2(C)CC[C@]3(C)C(=CC(=O)[C@@H]4[C@@]5(C)CC[C@H](O)C(C)(C)[C@@H]5CC[C@]43C)[C@@H]2C1', '%', 93),
  ('CSCCCNC(=S)NCCNC(=O)[C@@]1(C)CC[C@]2(C)CC[C@]3(C)C(=CC(=O)[C@@H]4[C@@]5(C)CC[C@H](O)C(C)(C)[C@@H]5CC[C@]43C)[C@@H]2C1', '%', 93),
  ('CC1(C)[C@@H](O)CC[C@]2(C)[C@H]3C(=O)C=C4[C@@H]5C[C@@](C)(C(=O)NCCNC(=O)Nc6ccccc6)CC[C@]5(C)CC[C@@]4(C)[C@]3(C)CC[C@@H]12', '%', 96),
  ('CC1(C)[C@@H](O)CC[C@]2(C)[C@H]3C(=O)C=C4[C@@H]5C[C@@](C)(C(=O)NCCNC(=O)c6ccc(F)cc6)CC[C@]5(C)CC[C@@]4(C)[C@]3(C)CC[C@@H]12', '%', 98),
  ('CC1(C)[C@@H](O)CC[C@]2(C)[C@H]3C(=O)C=C4[C@@H]5C[C@@](C)(C(=O)NCCc6ccc(F)cc6)CC[C@]5(C)CC[C@@]4(C)[C@]3(C)CC[C@@H]12', '%', 95);

---

System: PC-3
PROTOCOL_DESCRIPTION: Growth inhibition in apoptosis-sensitive human PC3 after 3 days by MTT assay
Type: functional
PARTICULARS: PC-3, 72 h
Listing of entries alongside the reported GI50.
ATTRIBUTE_MEASURED: GI50

INSERT INTO assay_data (smiles_string, tgt, observed_measurement) VALUES
  ('COc1ccc2[nH]cc(CCNC(=O)[C@@]3(C)CC[C@]4(C)CC[C@]5(C)C(=CC(=O)[C@@H]6[C@@]7(C)CC[C@H](O)C(C)(C)[C@@H]7CC[C@]65C)[C@@H]4C3)c2c1', 'PC-3', '43 µM'),
  ('CC1(C)[C@@H](O)CC[C@]2(C)[C@H]3C(=O)C=C4[C@@H]5C[C@@](C)(C(=O)NCc6ccc(C(F)(F)F)cc6)CC[C@]5(C)CC[C@@]4(C)[C@]3(C)CC[C@@H]12', 'PC-3', '35 µM'),
  ('CC1(C)[C@@H](O)CC[C@]2(C)[C@H]3C(=O)C=C4[C@@H]5C[C@@](C)(C(=O)NCCN)CC[C@]5(C)CC[C@@]4(C)[C@]3(C)CC[C@@H]12', 'PC-3', '31 µM'),
  ('CC1(C)[C@@H](O)CC[C@]2(C)[C@H]3C(=O)C=C4[C@@H]5C[C@@](C)(C(=O)NCCNC(=O)c6ccc(C(F)(F)F)cc6)CC[C@]5(C)CC[C@@]4(C)[C@]3(C)CC[C@@H]12', 'PC-3', '53 µM'),
  ('COC(=O)[C@@]1(C)CC[C@]2(C)CC[C@]3(C)C(=CC(=O)[C@@H]4[C@@]5(C)C=C(I)C(=O)C(C)(C)[C@@H]5CC[C@]43C)[C@@H]2C1', 'PC-3', '36 µM'),
  ('CCOC(=O)CCNC(=O)NCCNC(=O)[C@@]1(C)CC[C@]2(C)CC[C@]3(C)C(=CC(=O)[C@@H]4[C@@]5(C)CC[C@H](O)C(C)(C)[C@@H]5CC[C@]43C)[C@@H]2C1', 'PC-3', '46 µM'),
  ('CSCCCNC(=S)NCCNC(=O)[C@@]1(C)CC[C@]2(C)CC[C@]3(C)C(=CC(=O)[C@@H]4[C@@]5(C)CC[C@H](O)C(C)(C)[C@@H]5CC[C@]43C)[C@@H]2C1', 'PC-3', '39 µM'),
  ('CC1(C)[C@@H](O)CC[C@]2(C)[C@H]3C(=O)C=C4[C@@H]5C[C@@](C)(C(=O)NCCNC(=O)Nc6cc(C(F)(F)F)cc(C(F)(F)F)c6)CC[C@]5(C)CC[C@@]4(C)[C@]3(C)CC[C@@H]12', 'PC-3', '8 µM'),
  ('CC(C)(C)OC(=O)NCCNC(=O)[C@@]1(C)CC[C@]2(C)CC[C@]3(C)C(=CC(=O)[C@@H]4[C@@]5(C)CC[C@H](O)C(C)(C)[C@@H]5CC[C@]43C)[C@@H]2C1', 'PC-3', '41 µM'),
  ('CC1(C)[C@@H](O)CC[C@]2(C)[C@H]3C(=O)C=C4[C@@H]5C[C@@](C)(C(=O)NCCNC(=O)c6ccc(C#N)cc6)CC[C@]5(C)CC[C@@]4(C)[C@]3(C)CC[C@@H]12', 'PC-3', '72 µM'),
  ('CC1(C)[C@@H](O)CC[C@]2(C)[C@H]3C(=O)C=C4[C@@H]5C[C@@](C)(C(=O)NCCc6ccc(F)cc6)CC[C@]5(C)CC[C@@]4(C)[C@]3(C)CC[C@@H]12', 'PC-3', '33 µM'),
  ('COc1ccc(CCNC(=O)[C@@]2(C)CC[C@]3(C)CC[C@]4(C)C(=CC(=O)[C@@H]5[C@@]6(C)CC[C@H](O)C(C)(C)[C@@H]6CC[C@]54C)[C@@H]3C2)cc1OC', 'PC-3', '34 µM'),
  ('COc1ccc(CCNC(=O)[C@@]2(C)CC[C@]3(C)CC[C@]4(C)C(=CC(=O)[C@@H]5[C@@]6(C)CC[C@H](O)C(C)(C)[C@@H]6CC[C@]54C)[C@@H]3C2)cc1', 'PC-3', '34 µM');

---

Tested on: T98G
PROTOCOL_DESCRIPTION: Growth inhibition in apoptosis-resistant human T98G after 3 days by MTT assay
Format: functional
PARTICULARS: 72 h
ATTRIBUTE_MEASURED: GI50

INSERT INTO assay_data (smiles_string, tgt, observed_measurement) VALUES
  ('COc1ccc(CCNC(=O)[C@@]2(C)CC[C@]3(C)CC[C@]4(C)C(=CC(=O)[C@@H]5[C@@]6(C)CCC(=O)C(C)(C)[C@@H]6CC[C@]54C)[C@@H]3C2)cc1', 'T98G', '> 100 µM'),
  ('COc1ccc2[nH]cc(CCNC(=O)[C@@]3(C)CC[C@]4(C)CC[C@]5(C)C(=CC(=O)[C@@H]6[C@@]7(C)CC[C@H](O)C(C)(C)[C@@H]7CC[C@]65C)[C@@H]4C3)c2c1', 'T98G', '> 100 µM'),
  ('CC1(C)[C@@H](O)CC[C@]2(C)[C@H]3C(=O)C=C4[C@@H]5C[C@@](C)(C(=O)NCCN)CC[C@]5(C)CC[C@@]4(C)[C@]3(C)CC[C@@H]12', 'T98G', '> 100 µM');

---

Listing of entries alongside the reported remaining at 168 h.
PROTOCOL_DESCRIPTION: Chemical stability of the compound in MEM cell culture medium after 7 days by HPLC analysis
Assay type: physicochemical
PARTICULARS: read-out: Stability
ATTRIBUTE_MEASURED: remaining at 168 h (%)

INSERT INTO measurements (smiles_string, observed_measurement) VALUES
  ('COc1ccc(CCNC(=O)[C@@]2(C)CC[C@]3(C)CC[C@]4(C)C(=CC(=O)[C@@H]5[C@@]6(C)CC[C@H](O)C(C)(C)[C@@H]6CC[C@]54C)[C@@H]3C2)cc1', 91),
  ('CC1(C)[C@@H](O)CC[C@]2(C)[C@H]3C(=O)C=C4[C@@H]5C[C@@](C)(C(=O)NCCN)CC[C@]5(C)CC[C@@]4(C)[C@]3(C)CC[C@@H]12', 90),
  ('COc1ccc2[nH]cc(CCNC(=O)[C@@]3(C)CC[C@]4(C)CC[C@]5(C)C(=CC(=O)[C@@H]6[C@@]7(C)CC[C@H](O)C(C)(C)[C@@H]7CC[C@]65C)[C@@H]4C3)c2c1', 94),
  ('COC(=O)[C@@]1(C)CC[C@]2(C)CC[C@]3(C)C(=CC(=O)[C@@H]4[C@@]5(C)C=C(I)C(=O)C(C)(C)[C@@H]5CC[C@]43C)[C@@H]2C1', 89);
